Values from ChEMBL document CHEMBL1201862

# System: OVCAR-8
# test.summary: NCI tumour cell line growth inhibition, 48 h
Activity calls are given as the source filed them. Cut-off read from the data, not from the text of the source: active = GI50 up to about 1.1 µM and inactive = higher.

{"molecule": "CC1(C)COC(/C=C/C2=NC(C)(C)CO2)=N1", "GI50": "20.3 µM (inactive)"}
{"molecule": "COC(=O)C(Cc1ccc(Oc2cc(CC(NC(=O)c3ccccc3)C(=O)OC)ccc2OC)cc1)NC(=O)c1ccccc1 (centres undefined)", "GI50": "10.7 µM (inactive)"}
{"molecule": "CC(C)(C)OC(=O)N1CCC(C(=O)O)CC1", "GI50": "> 100 µM (inactive)"}
{"molecule": "COC(=O)C1CC=C(SC(=O)c2ccccc2)N1C(=O)c1ccccc1 (centres undefined)", "GI50": "> 100 µM (inactive)"}
{"molecule": "C=CCN(N=O)C(=O)N(CCC)CCCCC(NC(C)=O)C(=O)NCc1ccccc1 (centres undefined)", "GI50": "> 100 µM (inactive)"}
{"molecule": "C=C1c2ccccc2C(=O)c2c1c1c(C(=O)OC)c(O)ccc1n2Cc1ccccc1", "GI50": "0.245 µM (active)"}
{"molecule": "COC(=O)CNC(=O)CCC(C)[C@H]1CCC2C3C(C[C@H](OC(C)=O)[C@@]21C)[C@@]1(C)CCC2(C[C@H]1C[C@H]3OC(C)=O)OOC1(CCCCC1)OO2 (some centres undefined)", "GI50": "1.82 µM (inactive)"}
{"molecule": "C=CCc1cc(-c2cc(CC=C)c(O)c(CN(CC)CC)c2)cc(CN(CC)CC)c1O", "GI50": "> 96.6 µM (inactive)"}
{"molecule": "COc1cc(C(=O)N(C(=O)N2CCCCC2)c2ccccc2)cc(OC)c1OC", "GI50": "> 100 µM (inactive)"}

###

GI50 values for the molecules below.
# System: HCT-15
measured.quantity: GI50 (µM)

{"molecule": "Cc1ccc(Nc2ccc(Nc3ccc(C)cc3S(=O)(=O)O)c3c2C(=O)c2ccccc2C3=O)c(S(=O)(=O)O)c1", "measured.quantity": "GI50", "result.operator": ">", "recorded.measurement": 100}
{"molecule": "O=S1(=O)OCCOS(=O)(=O)C1Cc1nc2ccccc2[nH]1", "measured.quantity": "GI50", "result.operator": "=", "recorded.measurement": 26}
{"molecule": "COc1cc(OC)c(C2c3cc4c(cc3OC(N3CCOCC3)C2C)OCO4)c(OC)c1 (stereo not given)", "measured.quantity": "GI50", "result.operator": "=", "recorded.measurement": 17.4}
{"molecule": "CC(=O)c1sc2c(c1O)c(=O)n(-c1ccccc1)c(=S)n2-c1ccccc1", "measured.quantity": "GI50", "result.operator": ">", "recorded.measurement": 100}
{"molecule": "COc1ccc(C2SCC(=O)N2NC(=O)c2ccc(NC(C)=O)cc2)cc1 (stereo not given)", "measured.quantity": "GI50", "result.operator": ">", "recorded.measurement": 100}

###

# Test system: NCI-H522
# test.summary: NCI tumour cell line growth inhibition, 48 h
Calls of active or inactive are those of the source. Rule as the data show it: active = GI50 up to about 1.1 µM and inactive = higher.
measured.quantity: GI50

{"compound": "N#Cc1[nH]c(=O)n(-c2ccc(Cl)cc2)c1N", "recorded.measurement": "> 10 µM (inactive)"}
{"compound": "CCCCCCCCCCCCCCCC(=O)OCC1OC(n2cc(F)c(=O)[nH]c2=O)C(NC(=O)N(CCCl)N=O)C(O)C1O (stereo unspecified)", "recorded.measurement": "5.15 µM (inactive)"}
{"compound": "CC(NCCS(=O)(=O)O)C(=O)O (stereo unspecified)", "recorded.measurement": "> 100 µM (inactive)"}
{"compound": "CC(C)=C1C(=O)C[C@]2(C)C/C=C(\\C)CC/C=C(\\C)CC[C@@H]12", "recorded.measurement": "6.97 µM (inactive)"}
{"compound": "CCOC(=O)C1S/C(=N/c2ccc(Cl)cc2C)N=C1C (stereo unspecified)", "recorded.measurement": "13.3 µM (inactive)"}
{"compound": "CC1=CC(=O)NP(=O)(C23CC4CC(CC(C4)C2)C3)N1 (stereo unspecified)", "recorded.measurement": "> 100 µM (inactive)"}
{"compound": "CCOC(=O)NC(Nc1cccc(C(F)(F)F)c1)(C(F)(F)F)C(F)(F)F", "recorded.measurement": "> 100 µM (inactive)"}
{"compound": "CCOc1ccccc1/N=C(/NC(=O)CC)SC", "recorded.measurement": "> 10 µM (inactive)"}
{"compound": "Cc1c(/C=N/NC(=O)c2ccccc2)c(=O)n(-c2ccccc2)n1C", "recorded.measurement": "> 100 µM (inactive)"}
{"compound": "COC(=O)CNC(=O)CCC(C)[C@H]1CCC2C3C(C[C@H](OC(C)=O)[C@@]21C)[C@@]1(C)CCC2(C[C@H]1C[C@H]3OC(C)=O)OOC1(CCCCC1)OO2 (stereo partly specified)", "recorded.measurement": "1.48 µM (inactive)"}
{"compound": "O=C(O)/C(=C\\c1ccccc1)Cc1ccccc1", "recorded.measurement": "> 100 µM (inactive)"}

###

# Test system: DLD-1
# test.summary: NCI tumour cell line growth inhibition, 48 h
The source made the active and inactive calls. No stated cut-off is given here; in the data, active = GI50 up to about 1.1 µM and inactive = higher.
Classes used: active, inactive

{"compound": "COC1N(C2CC(O)C(CO)O2)C(=O)NC(=O)C1(F)Br (stereo unspecified)", "cat": "inactive"}
{"compound": "c1ccc(COC2(OCc3ccccc3)CC3OC2C2NN=NC32)cc1 (stereo unspecified)", "cat": "inactive"}
{"compound": "O=C(O)CCc1coc2ccc(O)cc12", "cat": "inactive"}
{"compound": "COc1ccc(/C=C2\\C(=O)N(C(=O)c3ccc(NC(C)=O)cc3)N=C2C)cc1OC", "cat": "inactive"}
{"compound": "C=C1C(=O)OC2/C=C(\\CO)C3OC3C3OC3(C)CC(OC(=O)/C(=C/C)COC(C)=O)C12 (stereo unspecified)", "cat": "active"}
{"compound": "N#Cc1ccccc1NC(=O)C(=O)C1NC(=S)NC1=O (stereo unspecified)", "cat": "inactive"}
{"compound": "COc1cc(C2c3cc4c(cc3OC3(O)COC(=O)C23)OCO4)cc(OC)c1OC (stereo unspecified)", "cat": "inactive"}
{"compound": "COc1cc2c(c(OC)c1OC)-c1ccc(SC)c(=O)cc1C(CC(=O)Oc1cccc(C#N)c1)C2 (stereo unspecified)", "cat": "active"}
{"compound": "OCCCCOC(c1ccccc1)(c1ccccc1)c1ccccc1", "cat": "inactive"}
{"compound": "C=C1C(=O)O[C@@H]2C[C@@H](C)[C@@H]3C=CC(=O)[C@@]3(C)[C@@H](O)[C@H]12 [HELENALIN]", "cat": "active"}
{"compound": "COC(=O)c1c(OC(=O)c2ccccc2)noc1CC(=O)OC1C=CCCC1 (stereo unspecified)", "cat": "inactive"}
{"compound": "C=CCNC(=S)N1CC(C)C(=O)Nc2cc(Cl)ccc21 (stereo unspecified)", "cat": "inactive"}
{"compound": "CC1=NOC(=O)/C1=C/c1ccccc1O", "cat": "inactive"}
{"compound": "C/C(=N\\NC(=O)C[n+]1ccccc1)c1sc(-c2nc(C)c(/C(C)=N/NC(=O)C[n+]3ccccc3)s2)nc1C", "cat": "inactive"}
{"compound": "CO[C@H]1C[C@@H]2CC[C@@H](C)[C@@](O)(O2)C(=O)C(=O)N2CCCC[C@H]2C(=O)O[C@H]([C@H](C)C[C@@H]2CC[C@@H](O)[C@H](OC)C2)CC(=O)[C@H](C)C=C(C)[C@@H](O)[C@@H](OC)C(=O)[C@H](C)C[C@H](C)/C=C/C=C/C=C1C", "cat": "inactive"}
{"compound": "CCOC(=O)/C(C#N)=C/c1[nH]c(C(=O)OCc2ccccc2)c(C)c1C", "cat": "inactive"}
{"compound": "Cc1c2cc[n+](C)c(C)c2cc2c1[nH]c1ccccc12", "cat": "inactive"}
{"compound": "O=c1[nH]cc(OCC(F)(F)F)c(=O)[nH]1", "cat": "inactive"}
{"compound": "CC1(CO)OC1COCc1ccccc1 (stereo unspecified)", "cat": "inactive"}
{"compound": "CCOC(=O)C1=C(C)N(NC(N)=O)C2(N)N(NC(N)=O)C(C)=C(C(=O)OCC)C12C(=O)OCC (stereo unspecified)", "cat": "inactive"}
{"compound": "CC1(C)CC(=O)c2c(oc3cc(O)c(O)cc23)C1", "cat": "inactive"}
{"compound": "COc1ccc2c(c1)C1(C=N2)CCN(C(C)=O)CC1", "cat": "inactive"}
{"compound": "CN(C)CCNC(=O)c1cccc2[nH]c(-c3ccc(Cl)cc3)nc12", "cat": "inactive"}
{"compound": "Nc1nc(N)c2ncn(CCCC(c3ccccc3)P(=O)(O)O)c2n1 (stereo unspecified)", "cat": "inactive"}
{"compound": "CC(=O)NNc1nc(C)c(C(=O)NNC(=O)C(=O)Nc2ccc(C)cc2[N+](=O)[O-])s1", "cat": "inactive"}
{"compound": "Cc1c2cc[n+](Cc3ccc(I)cc3)cc2c(C)c2c1[nH]c1ccccc12", "cat": "active"}
